These entries and their values trace back to patent US9630991B2.

Assay: Fibril dimensions measured from TEM images
Type: physicochemical
Settings: physiological conditions, TEM
Procedure: For, electron microscopy, samples were examined using a Phillips CM10 TEM at 80-100 kV accelerating voltage. Gels were diluted to a peptide concentration of 20 μM seconds before application to a glow-discharged, carbon-coated, copper grid followed by coating with uranyl acetate solution (4% w/v in water). The dimensions of the fibrils formed by these peptides are given in Table 2, and TEM images from which these measurements were obtained are shown in FIGS. 6A-6D. […]
Where a SMILES comes first, the peptide text is derived from it. [ ]: non-standard residue; d: D form. Orn = NCCC[C@H](N)C(=O)O
Catalogue of compounds with associated h, twist pitch

Reported h, twist pitch for CC(=O)N[C@@H](CCC(N)=O)C(=O)N[C@@H](CCC(N)=O)C(=O)N[C@@H](CCCNC(=N)N)C(=O)N[C@@H](CCC(N)=O)C(=O)N[C@@H](CCCN)C(=O)N[C@@H](CCC(N)=O)C(=O)N[C@@H](CCCN)C(=O)N[C@@H](CCC(N)=O)C(=O)N[C@@H](CCC(=O)O)C(=O)N[C@@H](CCC(N)=O)C(=O)N[C@@H](CCC(N)=O)C(N)=O [Peptide P11-19, CH3CO-Q-Q-R-Q-O-Q-O-Q-E-Q-Q-NH2] (Ac-QQRQ[Orn]Q[Orn]QEQQ-NH2) was 206-356 nm

According to the records, this compound CC(=O)N[C@H](C(=O)N[C@H](C(=O)N[C@@H](CCCNC(=N)N)C(=O)N[C@@H](Cc1ccccc1)C(=O)N[C@@H](CCC(=O)O)C(=O)N[C@@H](Cc1c[nH]c2ccccc12)C(=O)N[C@@H](CCC(=O)O)C(=O)N[C@@H](Cc1ccccc1)C(=O)N[C@@H](CCC(=O)O)C(=O)N[C@H](C(=O)N[C@H](C(N)=O)[C@@H](C)O)[C@@H](C)O)[C@@H](C)O)[C@@H](C)O [Peptide P11-17, CH3CO-T-T-R-F-E-W-E-F-E-T-T-NH2] (Ac-TTRFEWEFETT-NH2) displays h, twist pitch of 150-236 nm
